Ref: patent US5451522A

Molecular target: phthalyl amidase (Xanthobacter agilis)
Construct: 42-aa signal peptide removed
Assay: Substrate specificity: chemical structure requirements for enzyme activity
Format: biochemical
Settings: Table 9 beta-lactams; III = 100; 2.5 μmol compound, 0.3 units enzyme, 50 mM phosphate pH 8.0, 30° C.
Experimental: The activity of phthalyl amidase against 25 compounds was determined. The compounds were divided into beta-lactams (Table 9), phthalyl amides (Table 10), and aromatic ring substituted amides (Table 11). […] The amount of compound hydrolyzed was calculated from a standard curve of the test compound. […]
Endpoint: Relative Activity
Answer with a number only.

O=C(O)CN1C(=O)C(NC(=O)c2ccccc2)C1CCc1ccco1 (stereo not shown): 0
O=C(O)CN1C(=O)C(NC(=O)COc2ccccc2)C1CCc1ccco1 (stereo not shown): 0
O=C(O)CN1C(=O)C(NC(=O)Cc2ccccc2)C1CCc1ccco1 (stereo not shown): 0

Note: attention shifts to another entry.
Requested read-out Relative Activity, target or system phthalyl amidase (Xanthobacter agilis), entry O=C(O)C1=C(Cl)CCC2C(NC(=O)c3ccccc3C(=O)O)C(=O)N12 (stereo not shown)
100

###

Biological target: phthalyl amidase (Xanthobacter agilis, UniProt P0C2Y0)
Construct: 42-aa signal peptide removed
Sequence (P0C2Y0 2-453): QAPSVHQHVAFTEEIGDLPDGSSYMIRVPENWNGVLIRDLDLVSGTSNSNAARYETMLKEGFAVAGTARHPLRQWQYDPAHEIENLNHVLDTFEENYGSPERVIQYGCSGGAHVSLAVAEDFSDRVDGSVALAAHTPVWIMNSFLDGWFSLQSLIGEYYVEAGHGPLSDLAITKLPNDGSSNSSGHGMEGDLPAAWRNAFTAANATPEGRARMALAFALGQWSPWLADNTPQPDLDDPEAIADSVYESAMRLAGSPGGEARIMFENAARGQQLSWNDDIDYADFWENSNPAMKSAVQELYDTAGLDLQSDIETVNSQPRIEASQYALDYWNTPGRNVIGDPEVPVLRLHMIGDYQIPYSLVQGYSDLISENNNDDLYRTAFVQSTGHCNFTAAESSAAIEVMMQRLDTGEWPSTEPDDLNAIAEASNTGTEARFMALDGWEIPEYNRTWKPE
Experiment: Chiral and additional substrate selectivity of phthalyl amidase
Type: biochemical
Conditions: Table 13; III = 100; 0.009 mg (0.6 units) enzyme, 2.5 μmol substrate, buffer A, 30° C.
Endpoint: Relative Activity
Answer with a number only.

O=C(O)c1ccccc1C(=O)N[C@H](C(=O)O)c1ccccc1: 1.3
O=C(Nc1ccccc1)c1ccccc1S(=O)(=O)O: 0.0
O=C(O)C1=C(Cl)CCC2C(NC(=O)c3ccccc3C(=O)O)C(=O)N12 (stereo not shown): 100

Note: attention shifts to another entry.
Requested read-out: Relative Activity. Entry: `O=C(O)c1ccccc1C(=O)Nc1ccccc1`
200
